Test system: Klebsiella pneumoniae
test.description: Antimicrobial activity against multidrug resistant Klebsiella pneumoniae isolate 8 by broth dilution method
Type: functional
Record form. Attribute: MIC. Fill in for each entry.
One number for each entry, in µg/mL.

Previously resolved entries follow.
• CN(C)[C@@H]1C(O)=C(C(N)=O)C(=O)[C@@]2(O)C(O)=C3C(=O)c4c(O)cccc4[C@@](C)(O)[C@H]3C[C@@H]12 = 2
• O=C(N[C@H](CO)[C@H](O)c1ccc([N+](=O)[O-])cc1)C(Cl)Cl = 32
• C[C@@H]1CN(c2c(F)c(N)c3c(=O)c(C(=O)O)cn(C4CC4)c3c2F)C[C@H](C)N1 = 0.125
• C[C@@H](O)[C@H]1C(=O)N2C(C(=O)O)=C(SCCNC=N)C[C@H]12 [IMIPENEM ANHYDROUS] = 0.5
• CCn1cc(C(=O)O)c(=O)c2cc(F)c(N3CCNCC3)cc21 = 2

Respectfully, I request MIC for each entry included below.
1. CO[C@@]1(NC(=O)Cc2cccs2)C(=O)N2C(C(=O)O)=C(COC(N)=O)CS[C@@H]21
2. CO/N=C(\C(=O)N[C@@H]1C(=O)N2C(C(=O)[O-])=C(C[N+]3(C)CCCC3)CS[C@H]12)c1csc(N)n1

[8, 64]

Every entry's value here was drawn from ChEMBL document CHEMBL1649134.
